Tested on: MS2 coat protein
Test Name: apparent KD of MS2 coat protein, switch OFF state (with FMN for OFF switches, without FMN for ON switches); designed switch direction (-1 OFF switch, 1 ON switch): -1; higher = weaker reporter binding
Setup Conditions: FMN input: 0 or 200 uM; Eterna round: R93 (includes R88 designs)
Metric: apparent KD of MS2 coat protein (nM)
Quick reminder: number only, in nM, skip the unit.

What value of measured apparent KD of MS2 coat protein is listed for AACUGACAUGAGGAUCACCCAUGUCAGGAUAUGACUUCGAAAAAAAAAAAAAACGAUGUCAGAAGGGACAUGGG [Design 69: Sub-opt OB] ?
22.3

Value lookup for apparent KD of MS2 coat protein; key = AAAACGUCAGGAUAUACAGAAGAGAUCACGAAAAAAAAAAAACAUGAGGAUCACCCAUGUAGAAGGGACAAAAA [Ex2 Malc#3]
136

Proceed to the following item.
// query apparent KD of MS2 coat protein value for entry AUAAAGUGAGGAUAUCGAAGACUGUCGAAAAGACAGUCGAACGAGAAGGCACAUGAGGAUCACCCAUGUGAGGG [Mat - Exaclusion 4 - Eli mod - D68]
122

* * *

Test system: MS2 coat protein
Test Name: apparent KD of MS2 coat protein; designed switch direction (-1 OFF switch, 1 ON switch): 1; higher = weaker reporter binding
Setup Conditions: Eterna round: R98; input ligand: FMN 200 uM
// reported apparent KD of MS2 coat protein for each item listed
Value expressed in nM; do not type the unit.

Checklist item: apparent KD of MS2 coat protein tested on MS2 coat protein, entry GCUGCUAUCGCAGGAUAUUACAUGGGAAAUAAAACAUGAGGAUCACCCAUGUUAAAUAUCGUAAAUAAGAAGGGCGAUAGCAGC [Lame State 2 - Jieux - Same State NG 2] , value?
178

Give the reported apparent KD of MS2 coat protein for CCGGAAACGGGUAGCUGACAUGAGGAUCACCCAUGUGAUACACAGGAUAUGGAUCCUAAUUGGAUCCAGAAGGGUGUCAGCUAC [Mat - Same State NG 3 - JL Mod - D84] (system: MS2 coat protein).
130

Now let's try a different one.
What is its apparent KD of MS2 coat protein for MS2 coat protein? Entry: AUAAUAACUUGAGGAUAUGCUCAGGAAUACUGAGCAGAAGGCAGGGAAACCUGAGGAUCACCCAGGUAAAUAAUAAUAAUAAUA [Same State NG1 - A3C, U17G Submission 1B]
19.3

* * *

Test system: MS2 coat protein
Test Name: apparent KD of MS2 coat protein; higher = weaker reporter binding
Setup Conditions: Eterna round: R107; input ligand: theophylline 20 uM
Metric: apparent KD of MS2 coat protein (nM)
Reply with just the number (in nM).

Observe how each entry below is paired with its result.
Given the sequence UACAUGAGGAUCACCCAUGUCCCAUGUGAACGAGGACCGGUACGGCCGCCACUCGACCGAGGCGGCACAUGAGGAUCACCCGCAU [whbob_SS_trypto A_2s15] , what is its reported apparent KD of MS2 coat protein?
917

# input sequence: AAACAUUGCUGCGAUACCAGACAUGAGGAUCACCCAUGUACCAAGAAAACGUACAUAAAUGUCCCUUGGCAGCGCAGCAAUGAAA [MAT - Exclusion Theophlline B - Mod of Eli - D27] ; wanted: its apparent KD of MS2 coat protein
514

# apparent KD of MS2 coat protein lookup, item AACAUGAGGAUCACCCAUGUCCCAUGUGAACGAGGACCGGUACGGCCGCCACUCGACCGAGGCGGCACAUGAGGAUCACCCGCAU [whbob_SS_trypto A_2s14]
481

Item ACUGCUUUAGCGGCCGCCACUACAUGGACACUUACACUUUCUUGUUACAUGAGGAUCACCCAUGUUAGGACCGGGCUUGUACGGA [theeternabot_exclusion_MS2_Trp_B_31] has what recorded apparent KD of MS2 coat protein?
82.6

Quick one: apparent KD of MS2 coat protein of GCUUGGGUGGCACAGCCCUGGCAGUGCGAUACCAGCACGGUAACGUGCCCUUGGCAGCGCACAUGAGGAUCACCCAUGUGGUGCG [#1 Exclusion - Theophylline A Attempt #25 (HarryS)] ?
197

Others:
Look up apparent KD of MS2 coat protein for this sequence: UCGUGUGUUUCGGAUACCAGUGAAAUCGAUACAUGAGGAUCACCCAUGUGAGAGGAUGUACACCCUUGGCAGCUGGCUGUUGCGG [zezmullin]
36.2

Request the reported apparent KD of MS2 coat protein associated with GCUAGGUCUACGGCCGCCACUAGACGUGGGUAAAACAUGAGGAUCACCCAUGUGCUACGGGCGAAUAGGACCGGGUAGACCUAGC [SSTB NP+V+V2 #15 +-Same Structure]
529

Item ACAUUUAACUGAAGGAGCGUGAUAUACAUGAGGAUCACCCAUGUGUCUUUCAUGAAUAAUUCACAGGUAGGUCGCAGACUAAUGA [JR_ExcArginiB_Sub008] has what recorded apparent KD of MS2 coat protein?
50.3

// returns reported apparent KD of MS2 coat protein for input ACCUACACGGAGACGUGUAGGAGUAAUGAUACCAGCAUGGAGACAUGCCCUUGGCAGCGUUACAUGAGGAUCACCCAUGUGGUGC [ETHA #6]
37.4

State the recorded apparent KD of MS2 coat protein for this entry: AAAUAAUAUUAAUUAAUUAUAUUAUUCUGACGAGGACCGGUACGGCCGCCACUCGGCCCAUGGUACAUGAGGAUCACCCAUGUCU [Same State - Tryptophan A]
17.2

May I ask what apparent KD of MS2 coat protein has been recorded for GGUACAUGAGGAUCACCCAUGUAUGCGAGCCGAGGACCGGUACGGCCGCCACUCGCUUAACAUGAGGAUCACCCAUGUUUCUCGG [SSTA DOUBLE!!! :-D #15] ?
157

* * *

Test system: K4 kissing-loop RNA reporter
Test Name: apparent KD of K4 kissing-loop reporter; higher = weaker reporter binding
Setup Conditions: Eterna round: R107; input ligand: tryptophan 2.4 mM
Parameter threshold = 200 nM. Response is class 1 when apparent KD of K4 kissing-loop reporter meets or exceeds it, else class 0.

Does the sequence GGAUAGGACAGAGGAUAUCUCUGAGGCAAGAAAACUUGUCUCUAAGGAGAUGACUCAGUGAUGUUGAGAGAAGGCUGUCCUAUCG [FmnBX 12 - #SwitchBubble #StaticStem] have recorded apparent KD of K4 kissing-loop reporter that is 200 nM or more?
class 0

Others:
Does the sequence CUUUGAACAUGAGUGAUGUUCAUGUCCGAAGGAGCGUGCGAAAGCACAGGUAGGUCGCGGACGUGAGUGAUGUUCAUGUGAGCGA [KL-XArg-A11 #analogue] have recorded apparent KD of K4 kissing-loop reporter that is 200 nM or more?
class 0

Entry UGUACCGAGUCAGGAUAUCAUAAUAAUGCAGUGAUGUUGCAAUAACGACUGACAAAGUCGGUCGAUUGAGAAGGGACUUGGUACU [FmnBS 6 #SwitchBubble #StaticStem] : is its apparent KD of K4 kissing-loop reporter no less than 200 nM?
class 0

API: above_or_equal(metric=apparent KD of K4 kissing-loop reporter, cutoff=200 nM) for item GUGAAGGAGCUGCAGUGAUGUUGCAGAGACUAGGAUAUCAGGAAACUGAGAAGGAGUCAACUCCUUCACCUAGACACUGCAGAAA [[F]''-[K1]-[K2]-[F1]-[F2]-[F2]'-[F1]'-[K]'_Design1]
class 0

# bool: apparent KD of K4 kissing-loop reporter of UGAUACCAGACGGCCGCCACUCCCGUAAGUCAAAGACUUACGAAGAAGGUUUUUUAGUGAUGUUGGAGGACCGGGUCUGGUAUCU [FiskerMod 19 - Jieux - Exclusion - Tryptophan B] >= 200 nM
class 1

Could you tell me if the measured apparent KD of K4 kissing-loop reporter of `GGUAGCAUGGCGGCCGCCACUGAGCAAGUGAUGUUUGCCUCCCUACCCUAGUGUCGAGAGUAUAUCAGGACCGGGCCAUGCUACC` reaches 200 nM or more?
class 0

Entry ACCUUUUUUGCCAGUGAUGUUGGACAGGAAGGAGCGGGCAUAAGCCCAGGUAGGUCGCCUGUCAACUUUCUUAUAGCCCUAAGGU [KL-XArg-A17] : is its apparent KD of K4 kissing-loop reporter no less than 200 nM?
class 1

* * *

Tested on: K4 kissing-loop RNA reporter;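 also: bound reporter read as fluorescence of individual clusters on recovered sequencing chips by microscopy, with normalized cluster intensities fitted with a binding model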
Test Name: apparent KD of K4 kissing-loop reporter; higher = weaker reporter binding
Setup Conditions: Eterna round: R107; input ligand: theophylline 20 uM
// reported apparent KD of K4 kissing-loop reporter per item
Please give a number only; it is taken to be in nM.

I'd like to know its apparent KD of K4 kissing-loop reporter. The sequence in question is CGCAGUGAUGUUGCUAUUAUUCUUGAUUAACGAGGACCGGUACGGCCGCCACUCGAUUUCUAUCUAAUUUAGUGUUAUGUUGAUU [JR_ExcTryptoA_Sub007]
447

Look up apparent KD of K4 kissing-loop reporter: AAGUGAUGUUGUAGUGAUGUUGUGAUGUUGCAGGAUAUAUAGUGAUGUAGAAGGGUAUGUUCAGUUUUUUUUUUUGAGUGUUGAU [szxmullin]
47.6

Reported apparent KD of K4 kissing-loop reporter, sequence CUUUGAACAUGAGUGAUGUUCAUGUCCGAAGGAGCGUGCGAAAGCACAGGUAGGUCGCGGACGUGAGUGAUGUUCAUGUGAGCGA [KL-XArg-A11 #analogue] : ____
167

May I ask what apparent KD of K4 kissing-loop reporter has been recorded for CCGGAGGAAGUCGCUUUUCCUGUGGCAUAGAAGGAUAUCCAAUUAAGGAGAAGGUCUAUCUGCCUUAGUGAUGUUAGGAAGUAGA [theeternabot_sameState_KL_FMN_A_23] ?
162

Entry UGUAUGUGAUUUGAUACCAGACCAGCUGGUGGUAUAUGAGUGAUGUUCAUGUUGGUUUGGGUCCCUUGGCAGCAAAUCGCAUACU [KL-SSTheoB10] : reported apparent KD of K4 kissing-loop reporter = ?
213

As a next step, examine the sequence that follows.
What value of apparent KD of K4 kissing-loop reporter has been reported for the following sequence? AGUGAUAUAUGAGGAUAUGGGUUAAUUAGUGAGUUAUUUUUAGUGUUGUUUGAUUAGUGAUGUUAUUUAGAAGGCGUGAGUGAUG [awwswmjmullin]
130
